protocol: amyloid nucleation score (Sup35N fusion, yeast selection) (log enrichment); library NNK2; higher = more nucleation; inactive = no reads after selection;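 note: zero at mode of non-aggregating sequences after 7 days selection at 30°C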
# amyloid nucleation score values compiled below
// response body must contain only the number

Observe how each entry below is paired with its result.
SWWIVFWGHTTTRWNCSLGD = -0.831
DGIDTCGMCL = -0.096
WSFHRR = -0.552
VSDSNFNNGRYWLSVWRDVV = 4.25
ASLTASAGVVFFYTPTRRYN = 3.16
TLAFCFFLTKLSVQCFLYPP = 0.241
VSLSLC = -0.288
LRPLVL = -0.686
LCLIGRYRMSERALRLRWLV = 2.54
RVRGWLSMSWGCGMGLPASS = 7.03

In: Report amyloid nucleation score for PRWKHLTWIP please.
Out: -0.349

In: Look at this substance and give its reported amyloid nucleation score. SWMRFVKKIRQDAVRAVLIG
Out: 1.36

In: Name the recorded amyloid nucleation score for YWELDCTGYEGGMIRREWEI .
Out: 0.586

In: Requested read-out: amyloid nucleation score. Entry: SLRYSMRPMAFRFKHPLAPT
Out: -0.166

---

protocol: amyloid nucleation score (Sup35N fusion, yeast selection) (log enrichment); library NNK1; higher = more nucleation; inactive = no reads after selection
measurementName: amyloid nucleation score

LPGDFYGSYRN = inactive
VNVFYLMFQNIIIQVFLCVF = inactive
MFLYLLVVTP = inactive
ITFLLRSFRVHS = inactive
NDWIFD = inactive
SGHRFCAVRSRATGERFYGW = inactive

Consider the record given below.
In: Recorded amyloid nucleation score of TWRQNSRGNRASNCYVRSLS , please.
Out: inactive

---

protocol: amyloid nucleation score (Sup35N fusion, yeast selection) (log enrichment); library NNK1; higher = more nucleation; inactive = no reads after selection
Classification field: Criterion met = amyloid nucleation score at or over -0.05; Criterion not met = amyloid nucleation score under -0.05.

Below are worked cases with known answers.
KSVAIAPYDGCVMFSKQTWG = Criterion met
WNCKLTMADGGSAKVAPLSS = Criterion met

In: Dear colleague, could you confirm whether DWSSRVFPGSLGTKAGSHA has amyloid nucleation score at or above -0.05?
Out: Criterion not met

In: Could you please find out whether EFPIHQERAPSTTIHPSVSC has amyloid nucleation score that meets -0.05 or exceeds it?
Out: Criterion met

In: Record KCYTMHWPGS ; criterion: amyloid nucleation score no lower than -0.05. Met?
Out: Criterion not met

In: amyloid nucleation score >= -0.05 for YLMMVIRKVFVPCCNG ?
Out: Criterion met

In: Reported amyloid nucleation score reaches at least -0.05 for MLTRLHVSLSCHFYLWRSL ?
Out: Criterion met

---

protocol: amyloid nucleation score (Sup35N fusion, yeast selection) (log enrichment); library NNK3; higher = more nucleation; inactive = no reads after selection
measurementName: amyloid nucleation score

TNYWNHVVYVTGNVCDP = inactive
IRITNDNFVVRLVSQTVGLK = inactive
RNGDCLWIFR = 0.732
CISLSRL = inactive
SPRTNNPTMHRSGW = inactive

In: I would be grateful if you could share the reported amyloid nucleation score for WYRLLYKVEYNFKGWSVFVR .
Out: inactive

In: Return reported amyloid nucleation score; argument: DVRKRSFIYVCNRSLVVPFR
Out: inactive

In: Which amyloid nucleation score is reported for this substance? CVTINVIFDNVVY
Out: 2.3
